# key: entry, value: IC50
subject of test: HCV polymerase (Hepatitis C virus genotype 1b)
Construct: a region encoding NS5B (591 amino acids; J Virol 1991 Mar, 65(3), 1105-13) was amplified by PCR; 6 His (N); made in house; host or cells: Escherichia coli
run description: biochemical
condition description: read-out: HCV polymerase inhibitory activity IC50
Give your result in µM as a bare value.

Examples with their reported IC50 follow.
CSc1ccc(-c2ccc(Cl)cc2)c(COc2ccc(-c3nc4cc(C(=O)O)ccc4n3C3CCCCC3)cc2)c1; 0.022
CC(=O)N[C@@H](COc1ccc(-c2nc3cc(C(=O)O)ccc3n2C2CCCCC2)cc1)c1ccccc1; 0.43
O=C(O)c1ccc2c(c1)nc(-c1ccc(OCc3cc(Cl)ccc3-c3ccc(F)cc3)cc1)n2C1CCCCC1; 0.05

Exam item: Quote IC50 with test system HCV polymerase (Hepatitis C virus genotype 1b) for CC(C)(C)c1cc(COc2ccc(-c3nc4cc(C(=O)O)ccc4n3C3CCCCC3)cc2)cc(C(C)(C)C)c1
Marked response: 0.52

* * *

subject of test: HCV polymerase (Hepatitis C virus genotype 1b, UniProt P26663)
Construct: a region encoding NS5B (591 amino acids; J Virol 1991 Mar, 65(3), 1105-13) was amplified by PCR; 6 His (N); made in house; host or cells: Escherichia coli
Sequence (P26663 2420-3010): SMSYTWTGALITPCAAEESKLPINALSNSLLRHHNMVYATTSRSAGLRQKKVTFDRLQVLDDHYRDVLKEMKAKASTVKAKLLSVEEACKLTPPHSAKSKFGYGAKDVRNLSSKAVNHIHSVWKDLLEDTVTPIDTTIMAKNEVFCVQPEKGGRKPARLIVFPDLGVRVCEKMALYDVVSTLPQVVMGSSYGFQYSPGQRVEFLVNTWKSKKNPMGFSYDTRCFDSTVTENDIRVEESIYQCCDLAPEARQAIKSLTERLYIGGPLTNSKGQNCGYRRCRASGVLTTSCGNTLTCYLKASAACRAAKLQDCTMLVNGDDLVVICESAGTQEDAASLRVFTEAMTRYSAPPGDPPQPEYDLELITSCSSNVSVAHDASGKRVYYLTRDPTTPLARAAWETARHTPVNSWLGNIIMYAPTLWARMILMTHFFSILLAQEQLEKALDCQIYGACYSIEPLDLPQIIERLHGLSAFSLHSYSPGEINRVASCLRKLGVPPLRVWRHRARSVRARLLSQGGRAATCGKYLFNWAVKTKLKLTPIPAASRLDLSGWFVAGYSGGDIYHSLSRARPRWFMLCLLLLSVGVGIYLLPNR
run description: biochemical
condition description: read-out: HCV polymerase inhibitory activity IC50
Where a name gives a salt, the structure may show the parent alone.
Friendly reminder: IC50 below 30 nM is 1, at or above is -1.

Solved entries (count: 5):
CSc1ccc(-c2ccc(C(=O)N(C)C)cc2COc2ccc(-c3nc4cc(C(=O)O)ccc4n3C3CCCCC3)cc2)cc1 [Example 267, hydrochloride]; 1
O=C(O)c1ccc2c(c1)nc(-c1ccc(OCc3ccc(C(=O)N4CCC(O)CC4)cc3-c3ccc(Cl)cc3)cc1)n2C1CCCCC1 [Example 354, hydrochloride]; 1
O=C(O)c1ccc2c(c1)nc(-c1ccc(OCc3cc(-c4nsc(=O)[nH]4)ccc3-c3ccc(Cl)cc3)cc1F)n2C1CCCCC1 [Example 376, hydrochloride]; 1
O=C(O)c1ccc2c(c1)nc(-c1ccc(CCc3ccccc3)cc1)n2C1CCCCC1 [Example 77]; -1
O=C(O)c1ccc2c(c1)nc(-c1ccc(Oc3cccc(OCc4cccc(Cl)c4)c3)cc1)n2C1CCCCC1 [Example 200]; -1

Exam item: Is IC50 strictly under 30 nM for the entry O=C(O)c1ccc2c(c1)nc(-c1ccc(OCc3cc(C(=O)N4CCCC4)ccc3-c3ccc(Cl)cc3)cc1)n2C1CCSCC1 [Example 417, hydrochloride] ?
Marked response: 1

Exam item: # strict comparison: is reported IC50 < 30 nM? input = O=C(O)c1ccc2c(c1)nc(-c1ccc(OCc3sc(CN4CCC(O)CC4)nc3-c3ccc(F)cc3)cc1)n2C1CCCCC1 [Example 427, dihydrochloride]
Marked response: 1

Exam item: Is IC50 strictly under 30 nM for the entry O=C(O)c1ccc2c(c1)nc(-c1ccc(OC[C@@H]3CCCN3C(=O)OCc3ccccc3)cc1)n2C1CCCCC1 [Example 185] ?
Marked response: -1

Exam item: Threshold test, IC50 < 30 nM: NC(=O)c1ccc(-c2ccc(Cl)cc2)c(COc2ccc(-c3nc4cc(C(=O)O)ccc4n3C3CCCCC3)c(F)c2)c1 [Example 270, hydrochloride]
Marked response: 1

Exam item: Quick check: IC50 of CCOC(=O)c1ccn2c(C3CCCCC3)c(-c3ccc(OCc4ccccc4)cc3)nc2c1 [Example 601] under 30 nM?
Marked response: -1

Exam item: Is the reported IC50 for C#CCOc1cccc(Oc2ccc(-c3nc4cc(C(=O)O)ccc4n3C3CCCCC3)cc2)c1 [Example 177] strictly below 30 nM?
Marked response: -1

Exam item: State whether 30 nM exceeds IC50 recorded for NC(=O)c1ccc(-c2ccc(Cl)cc2COc2ccc(-c3nc4cc(C(=O)O)ccc4n3C3CCCCC3)cc2)cc1 [Example 195] .
Marked response: 1

Exam item: Below 30 nM on IC50? Entry CN(C)C(=O)c1cc(COc2ccc(-c3nc4cc(C(=O)O)ccc4n3C3CCCCC3)c(F)c2)c(-c2ccc(F)cc2)s1 [Example 431, hydrochloride]
Marked response: 1

Exam item: Here's an entry: CC(C)(C)c1ccc(-c2ccc(Cl)cc2COc2ccc(-c3nc4cc(C(=O)O)ccc4n3C3CCCCC3)cc2)cc1 [Example 145] . Is its IC50 below 30 nM?
Marked response: -1

Exam item: # TODO verify IC50 < 30 nM strictly for this molecule: CC(=O)N(C)c1ccc(-c2ccc(Cl)cc2)c(COc2ccc(-c3nc4cc(C(=O)O)ccc4n3C3CCCCC3)c(F)c2)c1 [Example 463, hydrochloride]
Marked response: 1

Exam item: Is it true that IC50 reported for O=C(O)c1ccc2c(c1)nc(-c1ccc(OCc3ccncc3)cc1)n2C1CCCC1 [Example 49, hydrochloride] is less than 30 nM?
Marked response: -1

Exam item: Confirm or reject: IC50 of O=C(O)c1ccc2c(c1)nc(-c1ccc(OC(c3ccc(F)cc3)c3ccc(F)cc3)cc1F)n2C1CCCCC1 [Example 148] lies strictly below 30 nM
Marked response: -1

* * *

IC50 values, listed per item
subject of test: HCV polymerase (Hepatitis C virus genotype 1b)
Construct: a region encoding NS5B (591 amino acids; J Virol 1991 Mar, 65(3), 1105-13) was amplified by PCR; 6 His (N); made in house; host or cells: Escherichia coli
run description: biochemical
condition description: read-out: HCV polymerase inhibitory activity IC50
Counter-ions that a name gives are not always drawn.
Give your result in nM as a bare value.

CCS(=O)(=O)N(C)c1ccc(-c2ccc(Cl)cc2)c(COc2ccc(-c3nc4cc(C(=O)O)ccc4n3C3CCCCC3)c(F)c2)c1 [Example 464, hydrochloride]; 30
O=C(O)c1ccc2c(c1)nc(-c1ccc(OCc3ccc(C(F)(F)F)cc3)cc1)n2C1CCCC1; 540
COc1cc(OCc2ccccc2)ccc1-c1nc2cc(C(=O)O)ccc2n1C1CCCCC1; 630
O=C(O)c1ccc2c(c1)nc(-c1ccc(Oc3ccccc3OCCc3ccccc3)cc1)n2C1CCCCC1; 100
O=C(O)c1ccc2c(c1)nc(-c1ccc(OCc3cc(OCCO)ccc3-c3ccc(Cl)cc3)cc1)n2C1CCCCC1 [Example 335, hydrochloride]; 13

Exam item: Provide measured IC50 value, entry: CC(C)(C)OC(=O)N1CCC(COc2cccc(Oc3ccc(-c4nc5cc(C(=O)O)ccc5n4C4CCCCC4)cc3)c2)CC1
Marked response: 230

Exam item: Please report the measured IC50 for CN(C)C(=O)c1ccc(C(Oc2ccc(-c3nc4cc(C(=O)O)ccc4n3C3CCCCC3)c(F)c2)c2ccc(F)cc2)cc1 (stereo not shown)
Marked response: 18

* * *

Property: log10 IC50; scope: individual compounds
subject of test: HCV polymerase (Hepatitis C virus genotype 1b)
Construct: a region encoding NS5B (591 amino acids; J Virol 1991 Mar, 65(3), 1105-13) was amplified by PCR; 6 His (N); made in house; host or cells: Escherichia coli
run description: biochemical
condition description: read-out: HCV polymerase inhibitory activity IC50
Counter-ions that a name gives are not always drawn.
Scale type: logarithmic (base 10). Underlying IC50 unit: nM.

CCCOc1cccc(Oc2ccc(-c3nc4cc(C(=O)O)ccc4n3C3CCCCC3)cc2)c1 [Example 111]; 2.15
O=C(O)c1ccc(-c2ccc(Cl)cc2COc2ccc(-c3nc4cc(-c5nnn[nH]5)ccc4n3C3CCCCC3)c(F)c2)cc1 [Example 435, hydrochloride]; 1.08
CN(C)C(=O)c1cccc(C(Oc2ccc(-c3nc4cc(C(=O)O)ccc4n3C3CCCCC3)c(F)c2)c2ccc(F)cc2)c1 (stereo not drawn) [Example 442, hydrochloride]; 1.38
COc1c(C(=O)O)ccc2c1nc(-c1ccc(OCc3cc(C(=O)NC(C)C)ccc3-c3ccc(Cl)cc3)cc1F)n2C1CCCCC1 [Example 450, hydrochloride]; 1.60
O=C(O)c1ccc2c(c1)nc(-c1ccc(Oc3cccc(OCc4ccc(C(F)(F)F)cc4)c3)cc1)n2C1CCCCC1 [Example 210]; 2.49

Kindly consider the entry below.
Exam item: Provide HCV polymerase (Hepatitis C virus genotype 1b) log10 IC50 reading for O=C(O)c1ccc2c(c1)nc(-c1ccc(Oc3cccc(OCc4ccc(F)cc4)c3)cc1)n2C1CCCCC1 [Example 202] .
Marked response: 1.98

* * *

subject of test: HCV polymerase (Hepatitis C virus genotype 1b, UniProt P26663)
Construct: a region encoding NS5B (591 amino acids; J Virol 1991 Mar, 65(3), 1105-13) was amplified by PCR; 6 His (N); made in house; host or cells: Escherichia coli
run description: biochemical
condition description: read-out: HCV polymerase inhibitory activity IC50
Counter-ions that a name gives are not always drawn.
observed property: pIC50
// scale note: pIC50 = -log10(conc_M); give the bare number

Examples from the recorded data:
CC(C)NC(=O)c1cc(COc2ccc(-c3nc4cc(C(=O)O)ccc4n3C3CCCCC3)c(F)c2)c(-c2ccc(F)cc2)s1 [Example 432, hydrochloride]; 7.66
C[C@@H]1CCC[C@H](C)N1C(=O)c1ccc(-c2ccc(Cl)cc2)c(COc2ccc(-c3nc4cc(C(=O)O)ccc4n3C3CCCCC3)c(F)c2)c1 [Example 387, hydrochloride]; 7.60
CN(C)C(=O)COc1cccc(Oc2ccc(-c3nc4cc(C(=O)O)ccc4n3C3CCCCC3)cc2)c1 [Example 196]; 6.70

Exam item: Return reported pIC50. Input molecule: O=C(O)c1ccc2c(c1)nc(-c1ccc(OC(C(=O)O)(c3ccccc3)c3ccccc3)cc1)n2C1CCCCC1 [Example 181]
Marked response: 6.15

Exam item: Quickly give me recorded pIC50 for COc1cccc(CCOc2ccc(-c3nc4cc(C(=O)O)ccc4n3C3CCCCC3)cc2)c1 [Example 121]
Marked response: 6.72

Exam item: Dear colleague, please send me the reported pIC50 for O=C(O)c1ccc2c(c1)nc(-c1ccc(OCc3cc(C(=O)NC4CCCCC4)ccc3-c3ccc(Cl)cc3)cc1)n2C1CCCCC1 [Example 324, hydrochloride] when you can.
Marked response: 7.57

Exam item: Could you please provide reported pIC50 for COc1ccc(-c2cccc(Oc3ccc(-c4nc5cc(C(=O)O)ccc5n4C4CCCCC4)cc3)c2)cc1 [Example 216] ? Thanks!
Marked response: 7.08

Exam item: Look up and state reported pIC50 for O=C(O)c1ccc2c(c1)nc(-c1ccc(OCc3ccccc3-c3ccc(C(F)(F)F)cc3)cc1)n2C1CCCCC1 [Example 117]
Marked response: 7.12

Exam item: Using the record for Cc1cnc(-c2ccc(-c3ccc(Cl)cc3)c(COc3ccc(-c4nc5cc(C(=O)O)ccc5n4C4CCCCC4)cc3)c2)s1 [Example 366, hydrochloride] , state its measured pIC50.
Marked response: 7.62

Exam item: Hello, please tell me recorded pIC50 for this one: O=C(O)c1ccc2c(c1)nc(-c1ccc(OCc3cccc([N+](=O)[O-])c3-c3ccc(Cl)cc3)cc1)n2C1CCCCC1 [Example 208]
Marked response: 7.41

Exam item: Fill in reported pIC50 for this entry: CC(=O)Nc1ccc(-c2ccc(Cl)cc2)c(COc2ccc(-c3nc4cc(C(=O)O)ccc4n3C3CCCCC3)c(F)c2)c1 [Example 458, hydrochloride]
Marked response: 7.82

Exam item: Quick one: give measured pIC50 for O=C(O)c1ccc2c(c1)nc(-c1ccc(Oc3cccc(OCc4ccccc4Cl)c3)cc1)n2C1CCCCC1 [Example 213]
Marked response: 7.00

Exam item: Return the recorded pIC50 value; entry: O=C(O)c1ccc2c(c1)nc(-c1ccc(OCc3ccc(C(=O)N4CCCCC4)cc3-c3ccc(Cl)cc3)cc1)n2C1CCCCC1 [Example 351, hydrochloride]
Marked response: 7.72
